# Organism: Homo sapiens
# assay notes: Selectivity ratio of Ki for human kappa opioid receptor over Ki for human delta opioid receptor
Catalogue of Ratio Ki values

Past entries and their recorded results:
{"smi": "Nc1nc2cc3c(cc2s1)C[C@@H]1[C@@H]2CCCC[C@]32CCN1CC1CC1", "parameter": "Ratio Ki", "result": 592}
{"smi": "O=C(CCCCCCCCC(=O)Nc1nc2cc3c(cc2s1)C[C@@H]1[C@@H]2CCCC[C@]32CCN1CC1CC1)Nc1nc2cc3c(cc2s1)C[C@@H]1[C@@H]2CCCC[C@]32CCN1CC1CC1", "parameter": "Ratio Ki", "result": 460}

Req: Any idea what its Ratio Ki is? The molecule is C=CCN1CC[C@]23c4c5ccc(OC(=O)CCCCCCCCC(=O)Oc6ccc7c(c6)[C@@]68CCCC[C@@]6(O)[C@@H](C7)N(CC6CCC6)CC8)c4O[C@H]2C(=O)CC[C@@]3(O)[C@H]1C5
Resp: 130

Req: Please give the measured Ratio Ki for this molecule: CO[C@@]12CCCC[C@@]13CCN(CC1CCC1)[C@@H]2Cc1ccc(OC(=O)CCCCCCCCC(=O)Oc2ccc4c(c2)[C@@]25CCCC[C@@]2(OC)[C@@H](C4)N(CC2CCC2)CC5)cc13
Resp: 50

Req: Quick one: Ratio Ki of O=C(/C=C/C(=O)Oc1ccc2c(c1)[C@@]13CCCC[C@H]1[C@@H](C2)N(CC1CCC1)CC3)Oc1ccc2c(c1)[C@@]13CCCC[C@H]1[C@@H](C2)N(CC1CCC1)CC3 ?
Resp: 120
